- System name: 14-3-3σ-ΔC (C-terminally truncated human 14-3-3σ) (human) (UniProt P31947)
- Sequence (P31947 1-231, stated change not applied): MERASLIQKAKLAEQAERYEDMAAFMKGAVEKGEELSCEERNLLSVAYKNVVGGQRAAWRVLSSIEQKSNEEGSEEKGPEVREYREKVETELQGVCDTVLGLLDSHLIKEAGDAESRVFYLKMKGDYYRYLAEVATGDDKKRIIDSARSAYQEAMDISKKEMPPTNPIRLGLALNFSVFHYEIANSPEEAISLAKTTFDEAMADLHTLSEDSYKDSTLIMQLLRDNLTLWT
- Assay: ITC; 150 µM 14-3-3σ-ΔC in the cell, fourfold-concentrated phosphopeptide in the needle; 2 µl injections; 25°C; one-site fit; apparent
Where no end group is shown, it is not given here. [ ]: non-standard residue; d: D form. pS = N[C@@H](COP(=O)(O)O)C(=O)O
Property measured: Kd (µM)
Numbers only, in µM.

Exercise: Could you tell me which Kd is on file for VLSSS[pS]CGSNS (also: phosphoserine at 670 (place in chain not given here)) [Sirt1^pS670 phospho-endecamer peptide] ?
Key: 5
